Where do the numbers come from? From ChEMBL document CHEMBL1137169.

# Test system: Huh-7
# assay.info: Cytotoxic concentration against Huh-7 liver cell line
# Type: functional
# test.parameters: Homo sapiens
measurement.label: CC50

INPUT: Item: CCCC(NC(=O)[C@@H]1C2CCCC2CN1C(=O)[C@@H](NC(=O)[C@@H](NC(=O)CCCCc1nnn[nH]1)C(C)C)C(C)C)C(=O)C(=O)NC(C)CC (stereo partly drawn) Test system: Huh-7 Read-out: CC50 Value: ?
OUTPUT: > 50 µM

INPUT: # query: CC50 | item CCCC(NC(=O)[C@@H]1C2CCCC2CN1C(=O)[C@@H](NC(=O)[C@@H](NC(=O)CCCCc1nnn[nH]1)C(C)C)C(C)C)C(=O)C(=O)N[C@@H](C)c1ccccc1 (stereo in doubt; 12) | system: Huh-7
OUTPUT: > 50 µM

INPUT: Request body: readout CC50, system Huh-7, query CCC[C@H](NC(=O)[C@@H]1C2CCCC2CN1C(=O)[C@@H](NC(=O)[C@@H](NC(=O)Cc1nn[nH]n1)[C@@H](C)CC)C(C)(C)C)C(=O)C(=O)NC1CC1 (stereo partly drawn) . Return the value.
OUTPUT: > 50 µM

----------
# Tested on: Huh-7
# assay.info: Cytotoxic concentration against Huh-7 liver cell line
# Assay type: functional
# test.parameters: Homo sapiens
measurement.label: CC50

[[record]]
compound = "CCC[C@H](NC(=O)[C@@H]1C2CCCC2CN1C(=O)[C@@H](NC(=O)[C@@H](NC(=O)c1cnccn1)C(C)C)C(C)C)C(=O)C(=O)NC1CC1 (stereo partly drawn)"
result = "> 50 µM"

[[record]]
compound = "CCCC(NC(=O)[C@@H]1CC(OC(=O)N2CCc3ccccc3C2)CN1C(=O)[C@@H](NC(=O)[C@@H](NC(=O)CCCCC(=O)O)C(C)C)C(C)C)C(=O)C(=O)NC1CC1 (stereo partly drawn)"
result = "> 50 µM"


For the next question, use this compound.
INPUT: # lookup: CC50 of CCCC(NC(=O)[C@@H]1C2CCCC2CN1C(=O)[C@@H](NC(=O)[C@@H](NC(=O)CCCCc1nnn[nH]1)C(C)C)C(C)C)C(=O)C(=O)Nc1ccccc1 (stereo partly drawn)
OUTPUT: > 10 µM

----------
Notes on pKi obtained with NS3 (Hepatitis C virus, UniProt A3EZJ3).
Sequence (A3EZJ3 whole entry): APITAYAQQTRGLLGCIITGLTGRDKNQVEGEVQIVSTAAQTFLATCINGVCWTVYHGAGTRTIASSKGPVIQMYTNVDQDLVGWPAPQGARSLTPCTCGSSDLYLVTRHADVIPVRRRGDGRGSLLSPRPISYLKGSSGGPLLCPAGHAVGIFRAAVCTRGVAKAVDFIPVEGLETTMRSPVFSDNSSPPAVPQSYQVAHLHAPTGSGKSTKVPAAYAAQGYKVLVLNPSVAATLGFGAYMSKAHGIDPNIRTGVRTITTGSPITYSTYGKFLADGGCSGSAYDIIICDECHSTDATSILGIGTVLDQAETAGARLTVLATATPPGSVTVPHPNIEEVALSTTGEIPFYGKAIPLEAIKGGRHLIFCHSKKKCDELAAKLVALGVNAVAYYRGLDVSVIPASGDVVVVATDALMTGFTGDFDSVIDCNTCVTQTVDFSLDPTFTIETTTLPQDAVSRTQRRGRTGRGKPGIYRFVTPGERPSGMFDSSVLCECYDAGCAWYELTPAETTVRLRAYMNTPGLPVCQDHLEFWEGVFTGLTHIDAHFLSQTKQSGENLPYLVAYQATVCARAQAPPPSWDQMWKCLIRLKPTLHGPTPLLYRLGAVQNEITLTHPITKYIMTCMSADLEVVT
pKi field: float, defined as -log10 of concentration (mol/L).

INPUT: Missing value: pKi, NS3 (Hepatitis C virus, UniProt A3EZJ3), entry CCCC(NC(=O)[C@@H]1CC(OC(=O)N2CCc3ccccc3C2)CN1C(=O)[C@@H](NC(=O)[C@@H](NC(=O)CCCCC(=O)NC)C(C)C)C(C)C)C(=O)C(=O)NC1CC1 (some centres undefined) . Fill in?
OUTPUT: 6.71

INPUT: Tell me reported pKi for CCCC(NC(=O)[C@@H]1CC(OC(=O)N2CCc3ccccc3C2)CN1C(=O)[C@@H](NC(=O)[C@@H](NC(=O)CCCCC(=O)O)C(C)C)C(C)C)C(=O)C(=O)NC1CC1 (some centres undefined) , tested with NS3 (Hepatitis C virus, UniProt A3EZJ3).
OUTPUT: 7.19

INPUT: Which pKi is reported with NS3 (Hepatitis C virus, UniProt A3EZJ3) for this entry: CCC[C@H](NC(=O)[C@@H]1C2CCCC2CN1C(=O)[C@@H](NC(=O)[C@@H](NC(=O)c1cnccn1)C(C)C)C(C)C)C(=O)C(=O)NC1CC1 (some centres undefined) ?
OUTPUT: 6.91

INPUT: Notebook: pull reported pKi for NS3 (Hepatitis C virus, UniProt A3EZJ3), entry CCC[C@H](NC(=O)[C@@H]1C2CCCC2CN1C(=O)[C@@H](NC(=O)[C@@H](NC(=O)Cc1nn[nH]n1)[C@@H](C)CC)C(C)(C)C)C(=O)C(=O)NC1CC1 (some centres undefined)
OUTPUT: 5.51

----------
# Tested on: Huh-7
# assay.info: Cytotoxic concentration against Huh-7 liver cell line
# Format: functional
# test.parameters: Homo sapiens
measurement.label: CC50

Worked set:
[[record]]
compound = "CCCC(NC(=O)[C@@H]1C2CCCC2CN1C(=O)[C@@H](NC(=O)[C@@H](NC(=O)Cc1nn[nH]n1)C1CCCCC1)C(C)(C)C)C(=O)C(=O)NC1CC1 (stereo partly drawn)"
result = "> 50 µM"

[[record]]
compound = "CCCC(NC(=O)[C@@H]1CC(OC(=O)N2CCc3ccccc3C2)CN1C(=O)[C@@H](NC(=O)[C@@H](NC(=O)CCCCC(=O)NC)C(C)C)C(C)C)C(=O)C(=O)NC1CC1 (stereo partly drawn)"
result = "> 10 µM"


INPUT: Reported CC50 for CCC[C@H](NC(=O)[C@@H]1C2CCCC2CN1C(=O)[C@@H](NC(=O)[C@@H](NC(=O)CCCCc1nnn[nH]1)C(C)C)C(C)C)C(=O)C(=O)NC1CC1 (stereo partly drawn) : what is it?
OUTPUT: > 50 µM
